Here, each record is paired with measured cytotoxicity at 2 days, 5 µM data.
experiment: MTS cytotoxicity assay, COLO 205; conditions: human, COLO 205 colon carcinoma cells, percent cytotoxicity, 5 μM, two days
measure.name: cytotoxicity at 2 days, 5 µM (%)

molecule	test.result
C[C@H]1c2cccc(O)c2C(=O)C2=C(O)[C@]3(O)C(=O)C(C(N)=O)=C(O)[C@@H](N(C)C)[C@@H]3[C@@H](O)[C@@H]21 [Doxycycline, 6α-deoxy-5-hydroxy-tetracycline, reference compound]	0
NC(=O)C1=C(O)CC2CC3Cc4cccc(O)c4C(=O)C3=C(O)C2(O)C1=O (centres unmarked)	17

###

experiment: MTS cytotoxicity assay, E-10; details: human, E-10 clone of MDA-MB-231 breast carcinoma cells, percent cytotoxicity, 5 μM, two days

compound	cytotoxicity at 2 days, 5 µM
C[C@H]1c2cccc(O)c2C(=O)C2=C(O)[C@]3(O)C(=O)C(C(N)=O)=C(O)[C@@H](N(C)C)[C@@H]3[C@@H](O)[C@@H]21 [Doxycycline, 6α-deoxy-5-hydroxy-tetracycline, reference compound]	0%
NC(=O)C1=C(O)CC2CC3Cc4cccc(O)c4C(=O)C3=C(O)C2(O)C1=O (centres unmarked)	0%

###

assay: Serum half-life; format: in vivo

compound	half-life
NC(=O)C1=C(O)CC2CC3Cc4cccc(O)c4C(=O)C3=C(O)C2(O)C1=O (stereo not shown)	~28 h

###

test: MTS cytotoxicity assay, E-10; conditions: human, E-10 clone of MDA-MB-231 breast carcinoma cells, percent cytotoxicity, 20 μM, two days

molecule	cytotoxicity at 2 days, 20 µM, %
C[C@H]1c2cccc(O)c2C(=O)C2=C(O)[C@]3(O)C(=O)C(C(N)=O)=C(O)[C@@H](N(C)C)[C@@H]3[C@@H](O)[C@@H]21 [Doxycycline, 6α-deoxy-5-hydroxy-tetracycline, reference compound]	4.5

###

tested on: COLO 205 Cells; experiment: MTS cytotoxicity assay, COLO 205; conditions: 50 μM, two days
Parameter percent cytotoxicity: see the listing below.

molecule	endpoint.unit	percent cytotoxicity
CC1(O)c2cccc(O)c2C(=O)C2=C(O)C3(O)C(=O)C(C(N)=O)=C(O)C(O)C3CC21 (stereo not drawn) [CMT-6]	%	0
NC(=O)C1=C(O)CC2CC3Cc4cccc(O)c4C(=O)C3=C(O)C2(O)C1=O (stereo not drawn) [CMT-3]	%	86.7
CC1(O)c2cccc(O)c2C(=O)C2=C(O)C3(O)C(=O)C(C(N)=O)=C(O)CC3CC21 (stereo not drawn) [CMT-1, 4-de(dimethylamino)tetracycline]	%	63.8
CN(C)C1C(=O)C(C#N)=C(O)C2(O)C(=O)C3=C(O)c4c(O)cccc4C(C)(O)C3CC12 (stereo not drawn) [CMT-2, tetracyclinonitrile]	%	7
CC1(O)c2cccc(O)c2C(=O)C2=C(O)C3C(=O)C(C(N)=O)=C(O)CC3CC21 (stereo not drawn) [CMT-7]	%	0
C[C@H]1c2cccc(O)c2C(O)=C2C(=O)[C@]3(O)C(O)=C(C(N)=O)C(=O)C[C@@H]3[C@@H](O)[C@@H]21 [CMT-8]	%	44.4

###

experiment: MTS cytotoxicity assay, E-10; settings: human, E-10 clone of MDA-MB-231 breast carcinoma cells, percent cytotoxicity, 100 μM, two days
measure.name: cytotoxicity at 2 days, 100 µM (%)

compound	test.result
C[C@H]1c2cccc(O)c2C(=O)C2=C(O)[C@]3(O)C(=O)C(C(N)=O)=C(O)[C@@H](N(C)C)[C@@H]3[C@@H](O)[C@@H]21 [Doxycycline, 6α-deoxy-5-hydroxy-tetracycline, reference compound]	29.5

###

system: COLO 205 Cells; test: MTS cytotoxicity assay, COLO 205; conditions: 5 μM, two days
measure.name: percent cytotoxicity (%)

compound	measure.name	test.result
CC1(O)c2cccc(O)c2C(=O)C2=C(O)C3(O)C(=O)C(C(N)=O)=C(O)CC3CC21 (stereo not drawn) [CMT-1, 4-de(dimethylamino)tetracycline]	percent cytotoxicity	0
CC1(O)c2cccc(O)c2C(=O)C2=C(O)C3C(=O)C(C(N)=O)=C(O)CC3CC21 (stereo not drawn) [CMT-7]	percent cytotoxicity	0
C[C@H]1c2cccc(O)c2C(O)=C2C(=O)[C@]3(O)C(O)=C(C(N)=O)C(=O)C[C@@H]3[C@@H](O)[C@@H]21 [CMT-8]	percent cytotoxicity	0
NC(=O)C1=C(O)CC2CC3Cc4cccc(O)c4C(=O)C3=C(O)C2(O)C1=O (stereo not drawn) [CMT-3]	percent cytotoxicity	25.9
CN(C)C1C(=O)C(C#N)=C(O)C2(O)C(=O)C3=C(O)c4c(O)cccc4C(C)(O)C3CC12 (stereo not drawn) [CMT-2, tetracyclinonitrile]	percent cytotoxicity	2.7
CC1(O)c2cccc(O)c2C(=O)C2=C(O)C3(O)C(=O)C(C(N)=O)=C(O)C(O)C3CC21 (stereo not drawn) [CMT-6]	percent cytotoxicity	1.7

###

tested on: C8161 cells; test: In vivo metastasis assay, C8161 cells i.v. in SCID mice; conditions: 40 mg/kg daily intragastric; Average ± SEM; control 231 ± 49

molecule	Number of Lung Metastases/Mouse
C[C@H]1c2cccc(O)c2C(O)=C2C(=O)[C@]3(O)C(O)=C(C(N)=O)C(=O)C[C@@H]3[C@@H](O)[C@@H]21	186
CC1(O)c2cccc(O)c2C(=O)C2=C(O)C3(O)C(=O)C(C(N)=O)=C(O)CC3CC21 (stereo not shown)	129
CC1(O)c2cccc(O)c2C(=O)C2=C(O)C3C(=O)C(C(N)=O)=C(O)CC3CC21 (stereo not shown)	136
NC(=O)C1=C(O)CC2CC3Cc4cccc(O)c4C(=O)C3=C(O)C2(O)C1=O (stereo not shown)	111

###

Molecular target: Gelatinase A (Homo sapiens, UniProt P08253)
Construct: endogenous in cells; host or cells: C8161
Sequence (P08253 110-660): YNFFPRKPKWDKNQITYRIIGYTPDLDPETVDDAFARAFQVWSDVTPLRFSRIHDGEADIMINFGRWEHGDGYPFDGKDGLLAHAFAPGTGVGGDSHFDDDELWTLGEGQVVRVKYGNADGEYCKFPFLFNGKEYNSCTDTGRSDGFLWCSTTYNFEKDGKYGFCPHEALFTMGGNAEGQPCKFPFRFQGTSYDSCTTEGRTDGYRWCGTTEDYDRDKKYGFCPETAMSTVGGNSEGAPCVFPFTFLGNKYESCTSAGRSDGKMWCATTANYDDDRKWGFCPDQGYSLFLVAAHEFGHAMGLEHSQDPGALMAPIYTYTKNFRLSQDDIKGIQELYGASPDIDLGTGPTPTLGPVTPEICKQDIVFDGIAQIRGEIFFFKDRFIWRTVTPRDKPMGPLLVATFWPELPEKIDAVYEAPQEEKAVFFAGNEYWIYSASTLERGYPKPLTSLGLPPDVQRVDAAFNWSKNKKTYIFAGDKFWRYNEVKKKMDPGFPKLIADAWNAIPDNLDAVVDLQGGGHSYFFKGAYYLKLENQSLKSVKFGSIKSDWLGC
Test: Zymography with densitometry of C8161 conditioned medium, gelatinase A
Assay type: cell-based
Settings: 50 μg/mL, 24 hr
measure.name: Gelatinase A, integrated density normalized to control 1.00

compound	test.result
CN(C)C1C(=O)C(C#N)=C(O)C2(O)C(=O)C3=C(O)c4c(O)cccc4C(C)(O)C3CC12 (stereo not shown)	0.89
CC1(O)c2cccc(O)c2C(=O)C2=C(O)C3(O)C(=O)C(C(N)=O)=C(O)CC3CC21 (stereo not shown)	0.24
CC1(O)c2cccc(O)c2C(=O)C2=C(O)C3C(=O)C(C(N)=O)=C(O)CC3CC21 (stereo not shown)	0.17
NC(=O)C1=C(O)CC2CC3Cc4cccc(O)c4C(=O)C3=C(O)C2(O)C1=O (stereo not shown)	0.22

###

system: COLO 205 Cells; test: MTS cytotoxicity assay, COLO 205; conditions: 20 μM, two days

molecule	percent cytotoxicity [%]
CC1(O)c2cccc(O)c2C(=O)C2=C(O)C3(O)C(=O)C(C(N)=O)=C(O)C(O)C3CC21 (stereo not drawn)	0
CC1(O)c2cccc(O)c2C(=O)C2=C(O)C3C(=O)C(C(N)=O)=C(O)CC3CC21 (stereo not drawn)	0
CC1(O)c2cccc(O)c2C(=O)C2=C(O)C3(O)C(=O)C(C(N)=O)=C(O)CC3CC21 (stereo not drawn)	32.5
NC(=O)C1=C(O)CC2CC3Cc4cccc(O)c4C(=O)C3=C(O)C2(O)C1=O (stereo not drawn)	37
C[C@H]1c2cccc(O)c2C(O)=C2C(=O)[C@]3(O)C(O)=C(C(N)=O)C(=O)C[C@@H]3[C@@H](O)[C@@H]21	35.5
CN(C)C1C(=O)C(C#N)=C(O)C2(O)C(=O)C3=C(O)c4c(O)cccc4C(C)(O)C3CC12 (stereo not drawn)	0

###

Documented Gelatinase B, integrated density normalized to control 1.00 across a set of compounds
molecular target: Gelatinase B (Homo sapiens, UniProt P14780); construct: endogenous in cells; host or cells: C8161; assay: Zymography with densitometry of C8161 conditioned medium, gelatinase B; format: cell-based; settings: 50 μg/mL, 24 hr
Sequence (P14780 94-707): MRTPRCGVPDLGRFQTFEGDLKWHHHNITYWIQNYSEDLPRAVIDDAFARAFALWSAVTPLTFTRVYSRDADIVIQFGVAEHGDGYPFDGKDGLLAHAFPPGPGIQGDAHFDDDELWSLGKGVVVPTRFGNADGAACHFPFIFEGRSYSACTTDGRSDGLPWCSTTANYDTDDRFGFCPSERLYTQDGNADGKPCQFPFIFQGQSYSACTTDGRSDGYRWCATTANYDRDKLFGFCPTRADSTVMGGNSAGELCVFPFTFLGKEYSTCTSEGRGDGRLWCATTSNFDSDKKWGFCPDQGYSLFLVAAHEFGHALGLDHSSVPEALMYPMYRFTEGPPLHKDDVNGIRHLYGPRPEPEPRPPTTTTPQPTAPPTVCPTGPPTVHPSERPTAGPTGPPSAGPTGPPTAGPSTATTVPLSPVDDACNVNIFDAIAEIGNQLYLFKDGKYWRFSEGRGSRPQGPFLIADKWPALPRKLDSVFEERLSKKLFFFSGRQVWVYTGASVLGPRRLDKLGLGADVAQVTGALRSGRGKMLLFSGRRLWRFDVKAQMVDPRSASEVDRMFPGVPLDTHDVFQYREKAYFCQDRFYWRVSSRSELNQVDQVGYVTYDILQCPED
measure.name: Gelatinase B, integrated density normalized to control 1.00

compound	test.result
CC1(O)c2cccc(O)c2C(=O)C2=C(O)C3C(=O)C(C(N)=O)=C(O)CC3CC21 (stereo not shown)	1.22
CC1(O)c2c(Cl)ccc(O)c2C(=O)C2=C(O)C3(O)C(=O)C(C(N)=O)=C(O)CC3CC21 (stereo not shown)	0.12
CC1(O)c2cccc(O)c2C(=O)C2=C(O)C3(O)C(=O)C(C(N)=O)=C(O)CC3CC21 (stereo not shown)	0.22
CC1(O)c2cccc(O)c2C(=O)C2=C(O)C3(O)C(=O)C(C(N)=O)=C(O)C(O)C3CC21 (stereo not shown)	0.51
CN(C)C1C(=O)C(C#N)=C(O)C2(O)C(=O)C3=C(O)c4c(O)cccc4C(C)(O)C3CC12 (stereo not shown)	1.51
C[C@H]1c2cccc(O)c2C(O)=C2C(=O)[C@]3(O)C(O)=C(C(N)=O)C(=O)C[C@@H]3[C@@H](O)[C@@H]21	1.05
NC(=O)C1=C(O)CC2CC3Cc4cccc(O)c4C(=O)C3=C(O)C2(O)C1=O (stereo not shown)	0.03
